System: A498 renal
PROTOCOL: NCI tumour cell line growth inhibition, 48 h
MEASUREMENT TYPE: TGI

Completed entries (count: 3):
| MOLECULE | TARGET OF ASSAY | TGI |
| --- | --- | --- |
| CC1(C)O[C@@H](CBr)C[C@H](C[C@H]2C[C@@H](O)C[C@@H](CCOCc3ccccc3)O2)O1 | A498 renal | 48.6 µM |
| O=c1[nH]n(Cc2ccccc2Cl)c2ccccc12 | A498 renal | > 100 µM |
| N#Cc1cc(S(=O)(=O)Nc2nc3ccccc3s2)c(SCc2ccccc2)cc1Cl | A498 renal | 45.8 µM |

For reference, reported TGI for COc1ccc(N=[N+]([O-])c2ccc(OC)cc2)cc1 stands at > 100 µM

For reference, reported TGI for O=C(CCN1CCOCC1)C(=Cc1ccccc1)C(=O)CCN1CCOCC1 stands at 31.4 µM

For reference, reported TGI for O=C(Nc1ccn(CCI)c(=O)n1)c1ccccc1 stands at > 100 µM

For reference, reported TGI for CCOC(=O)C1=C(Nc2ccc(Cl)c(Cl)c2)OC/C1=N\NS(=O)(=O)c1ccc(C)cc1 stands at > 100 µM

For reference, reported TGI for Cn1c2ccccc2c(=O)c2[nH]c3ccccc3c21 stands at > 100 µM

For reference, reported TGI for C/C=C(\C)C(=O)N[C@H]1C(O)C[C@]2(C)C3CC[C@@]4(C)C(CC[C@@H]4C(C)N(C)C)C3CCC2C1O (stereo partly drawn) stands at 30.1 µM

For reference, reported TGI for COc1ccc(OC)c(Nc2nc(-c3c(C)nc4sccn34)cs2)c1 stands at > 100 µM

For reference, reported TGI for CC(C)c1cc(OCC(O)CO)cc(C(C)C)c1 (stereo not drawn) stands at > 100 µM

For reference, reported TGI for CCN(CC)CCN(C(=O)c1ccc(F)cc1)c1ccccc1N stands at > 10 µM

For reference, reported TGI for CCN(CC)CCSCCCNc1c2ccc(Cl)cc2nc2ccc(OC)cc12 stands at 2.16 µM

For reference, reported TGI for c1ccc2c(c1)C1=NCCN1c1ccccc1-2 stands at 8.82 µM

For reference, reported TGI for CSc1cccc(NC(=O)OC2CCCCCCCCCCC2)c1 stands at 62.3 µM

For reference, reported TGI for CCOC(=O)c1c(C)c(C)n2c1NC(=O)C2 stands at > 100 µM

For reference, reported TGI for S=C1N=C(Cl)/C(=C\c2ccccc2)N1 stands at > 100 µM

For reference, reported TGI for COc1ccc(CCc2nccn2C)cc1OC stands at > 100 µM

For reference, reported TGI for C[C@]12CC[C@H](O)CC1=CC[C@@H]1C2CC[C@]2(C)Nc3c(cnn3-c3ccc(F)cc3)CC12 (stereo partly drawn) stands at > 47.6 µM

For reference, reported TGI for Cc1ccccc1-n1c(C)nc(-c2ccccc2)cc1=O stands at > 100 µM

* * *

TGI values for the compounds below.
System: IGROV1 ovarian
PROTOCOL: NCI tumour cell line growth inhibition, 48 h

Completed entries (count: 10):
| COMPOUND | TGI |
| --- | --- |
| Cn1cnc([N+](=O)[O-])c1Sc1ncn[nH]1 | > 100 µM |
| CC(C)COC(=O)c1ccc2[nH]c(O)c(C=Nc3ccc(S(N)(=O)=O)cc3)c2c1 | 8.01 µM |
| O=c1oc2ccc([N+](=O)[O-])cc2c(Nc2ccc3c(c2)S(=O)(=O)c2ccccc2O3)c1[N+](=O)[O-] | > 100 µM |
| C[N+](C)=c1nc(N2CCc3ccccc3C2)ss1 | > 100 µM |
| Nn1c(N=Nc2c(O)[nH]c3c(Cl)cc(Cl)cc23)n[nH]c1=S | > 100 µM |
| CCc1cc2c(oc3cc(C)ccc32)c(=O)n1C | > 10 µM |
| O=C(O)CCSC(=O)Nc1ccc(N=Nc2ccccc2)cc1 | > 100 µM |
| O=C(NO)c1ccc(O)c(O)c1 | > 100 µM |
| C=C1[C@@H]([C@@]2(C)C=CC(=O)C(C)(C)[C@@H]2CC(=O)OC)CC[C@@]2(C)C(c3ccoc3)OC(=O)[C@H]3O[C@]132 (some centres not stated) | > 100 µM |
| N#Cc1nc(COCCOCc2ccc(F)cc2)oc1N | > 100 µM |

For reference, reported TGI for N#Cc1c(N2CCOCC2)[nH]c(=O)c(C(c2c(Cl)cccc2Cl)c2c(O)c(C#N)c(N3CCOCC3)[nH]c2=O)c1O stands at 35.3 µM

For reference, reported TGI for COc1ccccc1CNC(=O)[C@H](Cc1ccc(O)cn1)NC(C)=O stands at > 100 µM

* * *

Test system: OVCAR-5 ovarian
PROTOCOL: NCI tumour cell line growth inhibition, 48 h
MEASUREMENT TYPE: TGI

Completed entries (count: 3):
| MOLECULE | TGI |
| --- | --- |
| CCN(CC)CCSCCCNc1c2ccc(Cl)cc2nc2ccc(OC)cc12 | 4.39 µM |
| C[C@]12CC[C@H](O)CC1=CC[C@@H]1C2CC[C@]2(C)Nc3c(cnn3-c3ccc(F)cc3)CC12 (some centres undefined) | > 100 µM |
| c1ccc(CC2(c3cc4ccccc4[nH]3)OCCO2)nc1 | > 100 µM |

For reference, reported TGI for CC(Br)C(=O)Nc1ccc(C(=O)O)c(O)c1 (centres undefined) stands at > 100 µM

For reference, reported TGI for CC(C)C(NC(=O)C(Cc1ccccc1)NC(=O)[C@H]1CCC[C@H]1NC(=O)C(N)Cc1ccc(O)cc1)C(N)=O (some centres undefined) stands at > 100 µM

For reference, reported TGI for C=CCn1c(-c2ccc(-c3cs/c(=N\N=O)n3CC=C)cc2)cs/c1=N\N=O stands at > 100 µM

For reference, reported TGI for C=C(C)C12CC3CC/C(=N/O)C(C1)C3(N1CCOCC1)C/C2=N/O (centres undefined) stands at > 100 µM

For reference, reported TGI for CCCC[C@H]1CCN2C[C@@H](O)[C@@H](O)[C@H]2[C@@H]1O stands at > 100 µM

For reference, reported TGI for CC#CC(O)(C(=O)OC1CC2CCC(C1)N2C)C1CCCC1 (centres undefined) stands at > 100 µM

For reference, reported TGI for N#CCCN(CCN(CCC#N)C(=O)Nc1ccccc1)C(=O)Nc1ccccc1 stands at > 100 µM

For reference, reported TGI for O=C1OC(c2ccccc2)=N/C1=C\c1cccc(F)c1 stands at > 100 µM

For reference, reported TGI for NCc1cc(O)c(O)c(O)c1 stands at > 100 µM

For reference, reported TGI for Cc1cc(Cl)ccc1C1OC(=O)c2c1ccc1ccccc21 (centres undefined) stands at > 100 µM

For reference, reported TGI for Cc1cccc2nc3cccc(C(=O)NCCN(C)C)c3nc12 stands at 5.97 µM

For reference, reported TGI for CN(C)CCN1C(=O)c2cccc3cccc(c23)C1=O stands at > 25 µM

For reference, reported TGI for O=C1C=CC(CC(=O)c2ccc3ccccc3c2)O1 (centres undefined) stands at 41.5 µM

For reference, reported TGI for CN1C(Cl)=NS(=O)(=O)c2ccccc21 stands at > 100 µM

For reference, reported TGI for Cc1cc2c(C)n(Cc3ccc(Cl)cc3Cl)nc2c(C(=O)O)c1C stands at > 100 µM

For reference, reported TGI for O=C1c2ccccc2-c2c1c(-c1cccc(Br)c1)nc1ccc3ccccc3c21 stands at > 100 µM

For reference, reported TGI for Cc1c(Sc2ccccc2)[n+](=O)c2cc(Cl)c(Cl)cc2n1[O-] stands at > 100 µM

For reference, reported TGI for Cc1cc(-c2nc3cccc(F)c3s2)ccc1N stands at > 100 µM

* * *

Tested on: LXFL 529 NSCLC
PROTOCOL: NCI tumour cell line growth inhibition, 48 h
MEASUREMENT TYPE: TGI (µM)
Give the quantity in µM, number only.

| COMPOUND | TARGET OF ASSAY | VALUE UNITS | TGI |
| --- | --- | --- | --- |
| CCC1CN2CCC3(c4ccccc4)CC(C(=O)OC)=CC1C23 (stereo not given) | LXFL 529 NSCLC | µM | 28.7 |

Turning now to a further compound:
For reference, reported TGI for CC1=C(C(=O)Nc2ccc([N+](=O)[O-])cc2)C(c2ccccc2F)C(C(=O)Nc2ccc([N+](=O)[O-])cc2)=C(C)N1 stands at 59.6

* * *

Test system: LOX IMVI melanoma
PROTOCOL: NCI tumour cell line growth inhibition, 48 h
MEASUREMENT TYPE: TGI

| COMPOUND | MEASUREMENT TYPE | REPORTED VALUE |
| --- | --- | --- |
| COc1ccc2nc(NC(=O)C(=O)C(C#N)c3ccc(Cl)c(Cl)c3)sc2c1 (stereo not drawn) | TGI | > 100 µM |

For reference, reported TGI for O=C(/C=C(\O)c1ccccc1)c1cc(-c2ccccc2)n(-c2ccccc2)n1 stands at > 100 µM

For reference, reported TGI for CC[C@@H]1/C=C/C=C/C[C@H](C)[C@@H](O)[C@](C)(O)C(=O)[C@H](C)[C@@H](O)[C@H](C)C(=O)[C@H](C)[C@@H](O)[C@H](C)/C=C/C(=O)O[C@H]2[C@@H](C)[C@@H](CC1)O[C@@]1(CC[C@@H](C)[C@@H](CC(C)O)O1)[C@@H]2C (stereo partly drawn) stands at 4.32 µM
